Tested on: C. albicans
assay-info: In vitro combination effects, checkerboard method by micro dilution (FIC index)
Assay type: cell-based, Candida albicans
test-context: C. albicans (20 strains); combination use with Test Compound 1
Numbered stars: 1 amine (or outer) side, 2 acyl side, 3 side chain; on linkers, the order of the positions; unused ones are H or OH. Bridge positions count the residues as written; N and C are the ends. Square brackets hold non-standard residues; d marks the D form. Peptide text beside a SMILES is read from it. * marks the point of attachment. hTyr(3S-OH,4S-OH,3'-OSO3H) = N[C@H](C(=O)O)[C@H](O)[C@@H](O)c1ccc(O)c(OS(=O)(=O)O)c1; Orn(4R-OH,5R-OH) = O=C([C@H](C[C@@H](O)[C@@H](O)N[*:3])N[*:1])[*:2]; Pro(3S-OH,4S-Me) = C[C@H]1CN[C@H](C(=O)O)[C@H]1O; X1 = CCCCCOc1ccc(-c2cc(-c3ccc(C(=O)*)cc3)no2)cc1; Gln(3R-OH) = NC(=O)C[C@@H](O)[C@H](N)C(=O)O; Hyp = O=C(O)[C@@H]1C[C@@H](O)CN1
Ratio indicating Additive effect of combination use with Test Compound 1 for assorted molecules
quantity-name: Ratio indicating Additive effect of combination use with Test Compound 1 (%)

{"molecule": "C[C@@H]1[C@H](O)[C@@H](C)/C=C/C=C/C=C/C=C/C=C/C=C/C=C/[C@H](O[C@@H]2O[C@H](C)[C@@H](O)[C@H](N)[C@@H]2O)C[C@@H]2O[C@](O)(C[C@@H](O)C[C@@H](O)[C@H](O)CC[C@@H](O)C[C@@H](O)CC(=O)O[C@H]1C)C[C@H](O)[C@H]2C(=O)O", "output-unit": "%", "value-observed": 85}
{"molecule": "OC(Cn1cncn1)(Cn1cncn1)c1ccc(F)cc1F", "output-unit": "%", "value-observed": 80}
{"molecule": "CC[C@H](C)C[C@H](C)CCCCCCCCC(=O)N[C@H]1C[C@@H](O)[C@@H](NCCN)NC(=O)[C@@H]2[C@@H](O)CCN2C(=O)[C@H]([C@H](O)CCN)NC(=O)[C@H]([C@H](O)[C@@H](O)c2ccc(O)cc2)NC(=O)[C@@H]2C[C@@H](O)CN2C(=O)[C@H]([C@@H](C)O)NC1=O", "output-unit": "%", "value-observed": 85}
{"molecule": "C[C@@H](c1ncncc1F)[C@](O)(Cn1cncn1)c1ccc(F)cc1F", "output-unit": "%", "value-observed": 75}
{"molecule": "CCCCCOc1ccc(-c2cc(-c3ccc(C(=O)N[C@H]4C[C@@H](O)[C@@H](O)NC(=O)[C@@H]5[C@@H](O)[C@@H](C)CN5C(=O)[C@H]([C@H](O)CC(N)=O)NC(=O)[C@H]([C@H](O)[C@@H](O)c5ccc(O)c(OS(=O)(=O)O)c5)NC(=O)[C@@H]5C[C@@H](O)CN5C(=O)[C@H]([C@@H](C)O)NC4=O)cc3)no2)cc1 [Micafungin, micafungin] (X1-[Orn(4R-OH,5R-OH)]T[Hyp][hTyr(3S-OH,4S-OH,3'-OSO3H)][Gln(3R-OH)][Pro(3S-OH,4S-Me)]; lactam 1-C)", "output-unit": "%", "value-observed": 80}

* * *

Test system: C. glabrata
assay-info: In vitro combination effects, checkerboard method by micro dilution (FIC index)
Type: cell-based, Candida glabrata
test-context: C. glabrata (10 strains); combination use with Test Compound 1
Numbered stars: 1 amine (or outer) side, 2 acyl side, 3 side chain; on linkers, the order of the positions; unused ones are H or OH. Bridge positions count the residues as written; N and C are the ends. Square brackets hold non-standard residues; d marks the D form. Peptide text beside a SMILES is read from it. * marks the point of attachment. hTyr(3S-OH,4S-OH,3'-OSO3H) = N[C@H](C(=O)O)[C@H](O)[C@@H](O)c1ccc(O)c(OS(=O)(=O)O)c1; Orn(4R-OH,5R-OH) = O=C([C@H](C[C@@H](O)[C@@H](O)N[*:3])N[*:1])[*:2]; Pro(3S-OH,4S-Me) = C[C@H]1CN[C@H](C(=O)O)[C@H]1O; X1 = CCCCCOc1ccc(-c2cc(-c3ccc(C(=O)*)cc3)no2)cc1; Gln(3R-OH) = NC(=O)C[C@@H](O)[C@H](N)C(=O)O; Hyp = O=C(O)[C@@H]1C[C@@H](O)CN1
quantity-name: Ratio indicating Indifferent effect of combination use with Test Compound 1 (%)

{"compound": "C[C@@H]1[C@H](O)[C@@H](C)/C=C/C=C/C=C/C=C/C=C/C=C/C=C/[C@H](O[C@@H]2O[C@H](C)[C@@H](O)[C@H](N)[C@@H]2O)C[C@@H]2O[C@](O)(C[C@@H](O)C[C@@H](O)[C@H](O)CC[C@@H](O)C[C@@H](O)CC(=O)O[C@H]1C)C[C@H](O)[C@H]2C(=O)O", "value-observed": 0}
{"compound": "OC(Cn1cncn1)(Cn1cncn1)c1ccc(F)cc1F", "value-observed": 10}
{"compound": "CCCCCOc1ccc(-c2cc(-c3ccc(C(=O)N[C@H]4C[C@@H](O)[C@@H](O)NC(=O)[C@@H]5[C@@H](O)[C@@H](C)CN5C(=O)[C@H]([C@H](O)CC(N)=O)NC(=O)[C@H]([C@H](O)[C@@H](O)c5ccc(O)c(OS(=O)(=O)O)c5)NC(=O)[C@@H]5C[C@@H](O)CN5C(=O)[C@H]([C@@H](C)O)NC4=O)cc3)no2)cc1 [Micafungin, micafungin] (X1-[Orn(4R-OH,5R-OH)]T[Hyp][hTyr(3S-OH,4S-OH,3'-OSO3H)][Gln(3R-OH)][Pro(3S-OH,4S-Me)]; lactam 1-C)", "value-observed": 30}
{"compound": "CC[C@H](C)C[C@H](C)CCCCCCCCC(=O)N[C@H]1C[C@@H](O)[C@@H](NCCN)NC(=O)[C@@H]2[C@@H](O)CCN2C(=O)[C@H]([C@H](O)CCN)NC(=O)[C@H]([C@H](O)[C@@H](O)c2ccc(O)cc2)NC(=O)[C@@H]2C[C@@H](O)CN2C(=O)[C@H]([C@@H](C)O)NC1=O", "value-observed": 0}
{"compound": "C[C@@H](c1ncncc1F)[C@](O)(Cn1cncn1)c1ccc(F)cc1F", "value-observed": 10}

* * *

System: A. flavus
assay-info: In vitro combination effects, checkerboard method by micro dilution (FIC index)
Assay type: cell-based, Aspergillus flavus
test-context: A. flavus (4 strains), Table 1
Numbered stars: 1 amine (or outer) side, 2 acyl side, 3 side chain; on linkers, the order of the positions; unused ones are H or OH. Bridge positions count the residues as written; N and C are the ends. Square brackets hold non-standard residues; d marks the D form. Peptide text beside a SMILES is read from it. * marks the point of attachment. hTyr(3S-OH,4S-OH,3'-OSO3H) = N[C@H](C(=O)O)[C@H](O)[C@@H](O)c1ccc(O)c(OS(=O)(=O)O)c1; Orn(4R-OH,5R-OH) = O=C([C@H](C[C@@H](O)[C@@H](O)N[*:3])N[*:1])[*:2]; Pro(3S-OH,4S-Me) = C[C@H]1CN[C@H](C(=O)O)[C@H]1O; X1 = CCCCCOc1ccc(-c2cc(-c3ccc(C(=O)*)cc3)no2)cc1; Gln(3R-OH) = NC(=O)C[C@@H](O)[C@H](N)C(=O)O; Hyp = O=C(O)[C@@H]1C[C@@H](O)CN1
# maps each entry to its Ratio indicating Indifferent effect of combination use with Test Compound 1
quantity-name: Ratio indicating Indifferent effect of combination use with Test Compound 1 (%)

{"compound": "CC[C@H](C)C[C@H](C)CCCCCCCCC(=O)N[C@H]1C[C@@H](O)[C@@H](NCCN)NC(=O)[C@@H]2[C@@H](O)CCN2C(=O)[C@H]([C@H](O)CCN)NC(=O)[C@H]([C@H](O)[C@@H](O)c2ccc(O)cc2)NC(=O)[C@@H]2C[C@@H](O)CN2C(=O)[C@H]([C@@H](C)O)NC1=O [Caspofungin, caspofungin]", "target-entity": "A. flavus", "value-observed": 0}
{"compound": "C[C@@H](c1ncncc1F)[C@](O)(Cn1cncn1)c1ccc(F)cc1F [Voriconazole, voriconazole]", "target-entity": "A. flavus", "value-observed": 50}
{"compound": "CCCCCOc1ccc(-c2cc(-c3ccc(C(=O)N[C@H]4C[C@@H](O)[C@@H](O)NC(=O)[C@@H]5[C@@H](O)[C@@H](C)CN5C(=O)[C@H]([C@H](O)CC(N)=O)NC(=O)[C@H]([C@H](O)[C@@H](O)c5ccc(O)c(OS(=O)(=O)O)c5)NC(=O)[C@@H]5C[C@@H](O)CN5C(=O)[C@H]([C@@H](C)O)NC4=O)cc3)no2)cc1 [Micafungin, micafungin] (X1-[Orn(4R-OH,5R-OH)]T[Hyp][hTyr(3S-OH,4S-OH,3'-OSO3H)][Gln(3R-OH)][Pro(3S-OH,4S-Me)]; lactam 1-C)", "target-entity": "A. flavus", "value-observed": 0}
{"compound": "C[C@@H]1[C@H](O)[C@@H](C)/C=C/C=C/C=C/C=C/C=C/C=C/C=C/[C@H](O[C@@H]2O[C@H](C)[C@@H](O)[C@H](N)[C@@H]2O)C[C@@H]2O[C@](O)(C[C@@H](O)C[C@@H](O)[C@H](O)CC[C@@H](O)C[C@@H](O)CC(=O)O[C@H]1C)C[C@H](O)[C@H]2C(=O)O [Amphotericin B, amphotericin B]", "target-entity": "A. flavus", "value-observed": 75}

Data origin: patent US20130288956A1
